Values from ChEMBL document CHEMBL4823251

molecular target: Serine-protein kinase ATM (Homo sapiens, UniProt Q13315); assay: Inhibition of ATM in human U2OS cells assessed as reduction in etoposide-stimulated KAP1 phosphorylation incubated for 60 mins by immunoreactivity assay
Sequence (Q13315 whole entry): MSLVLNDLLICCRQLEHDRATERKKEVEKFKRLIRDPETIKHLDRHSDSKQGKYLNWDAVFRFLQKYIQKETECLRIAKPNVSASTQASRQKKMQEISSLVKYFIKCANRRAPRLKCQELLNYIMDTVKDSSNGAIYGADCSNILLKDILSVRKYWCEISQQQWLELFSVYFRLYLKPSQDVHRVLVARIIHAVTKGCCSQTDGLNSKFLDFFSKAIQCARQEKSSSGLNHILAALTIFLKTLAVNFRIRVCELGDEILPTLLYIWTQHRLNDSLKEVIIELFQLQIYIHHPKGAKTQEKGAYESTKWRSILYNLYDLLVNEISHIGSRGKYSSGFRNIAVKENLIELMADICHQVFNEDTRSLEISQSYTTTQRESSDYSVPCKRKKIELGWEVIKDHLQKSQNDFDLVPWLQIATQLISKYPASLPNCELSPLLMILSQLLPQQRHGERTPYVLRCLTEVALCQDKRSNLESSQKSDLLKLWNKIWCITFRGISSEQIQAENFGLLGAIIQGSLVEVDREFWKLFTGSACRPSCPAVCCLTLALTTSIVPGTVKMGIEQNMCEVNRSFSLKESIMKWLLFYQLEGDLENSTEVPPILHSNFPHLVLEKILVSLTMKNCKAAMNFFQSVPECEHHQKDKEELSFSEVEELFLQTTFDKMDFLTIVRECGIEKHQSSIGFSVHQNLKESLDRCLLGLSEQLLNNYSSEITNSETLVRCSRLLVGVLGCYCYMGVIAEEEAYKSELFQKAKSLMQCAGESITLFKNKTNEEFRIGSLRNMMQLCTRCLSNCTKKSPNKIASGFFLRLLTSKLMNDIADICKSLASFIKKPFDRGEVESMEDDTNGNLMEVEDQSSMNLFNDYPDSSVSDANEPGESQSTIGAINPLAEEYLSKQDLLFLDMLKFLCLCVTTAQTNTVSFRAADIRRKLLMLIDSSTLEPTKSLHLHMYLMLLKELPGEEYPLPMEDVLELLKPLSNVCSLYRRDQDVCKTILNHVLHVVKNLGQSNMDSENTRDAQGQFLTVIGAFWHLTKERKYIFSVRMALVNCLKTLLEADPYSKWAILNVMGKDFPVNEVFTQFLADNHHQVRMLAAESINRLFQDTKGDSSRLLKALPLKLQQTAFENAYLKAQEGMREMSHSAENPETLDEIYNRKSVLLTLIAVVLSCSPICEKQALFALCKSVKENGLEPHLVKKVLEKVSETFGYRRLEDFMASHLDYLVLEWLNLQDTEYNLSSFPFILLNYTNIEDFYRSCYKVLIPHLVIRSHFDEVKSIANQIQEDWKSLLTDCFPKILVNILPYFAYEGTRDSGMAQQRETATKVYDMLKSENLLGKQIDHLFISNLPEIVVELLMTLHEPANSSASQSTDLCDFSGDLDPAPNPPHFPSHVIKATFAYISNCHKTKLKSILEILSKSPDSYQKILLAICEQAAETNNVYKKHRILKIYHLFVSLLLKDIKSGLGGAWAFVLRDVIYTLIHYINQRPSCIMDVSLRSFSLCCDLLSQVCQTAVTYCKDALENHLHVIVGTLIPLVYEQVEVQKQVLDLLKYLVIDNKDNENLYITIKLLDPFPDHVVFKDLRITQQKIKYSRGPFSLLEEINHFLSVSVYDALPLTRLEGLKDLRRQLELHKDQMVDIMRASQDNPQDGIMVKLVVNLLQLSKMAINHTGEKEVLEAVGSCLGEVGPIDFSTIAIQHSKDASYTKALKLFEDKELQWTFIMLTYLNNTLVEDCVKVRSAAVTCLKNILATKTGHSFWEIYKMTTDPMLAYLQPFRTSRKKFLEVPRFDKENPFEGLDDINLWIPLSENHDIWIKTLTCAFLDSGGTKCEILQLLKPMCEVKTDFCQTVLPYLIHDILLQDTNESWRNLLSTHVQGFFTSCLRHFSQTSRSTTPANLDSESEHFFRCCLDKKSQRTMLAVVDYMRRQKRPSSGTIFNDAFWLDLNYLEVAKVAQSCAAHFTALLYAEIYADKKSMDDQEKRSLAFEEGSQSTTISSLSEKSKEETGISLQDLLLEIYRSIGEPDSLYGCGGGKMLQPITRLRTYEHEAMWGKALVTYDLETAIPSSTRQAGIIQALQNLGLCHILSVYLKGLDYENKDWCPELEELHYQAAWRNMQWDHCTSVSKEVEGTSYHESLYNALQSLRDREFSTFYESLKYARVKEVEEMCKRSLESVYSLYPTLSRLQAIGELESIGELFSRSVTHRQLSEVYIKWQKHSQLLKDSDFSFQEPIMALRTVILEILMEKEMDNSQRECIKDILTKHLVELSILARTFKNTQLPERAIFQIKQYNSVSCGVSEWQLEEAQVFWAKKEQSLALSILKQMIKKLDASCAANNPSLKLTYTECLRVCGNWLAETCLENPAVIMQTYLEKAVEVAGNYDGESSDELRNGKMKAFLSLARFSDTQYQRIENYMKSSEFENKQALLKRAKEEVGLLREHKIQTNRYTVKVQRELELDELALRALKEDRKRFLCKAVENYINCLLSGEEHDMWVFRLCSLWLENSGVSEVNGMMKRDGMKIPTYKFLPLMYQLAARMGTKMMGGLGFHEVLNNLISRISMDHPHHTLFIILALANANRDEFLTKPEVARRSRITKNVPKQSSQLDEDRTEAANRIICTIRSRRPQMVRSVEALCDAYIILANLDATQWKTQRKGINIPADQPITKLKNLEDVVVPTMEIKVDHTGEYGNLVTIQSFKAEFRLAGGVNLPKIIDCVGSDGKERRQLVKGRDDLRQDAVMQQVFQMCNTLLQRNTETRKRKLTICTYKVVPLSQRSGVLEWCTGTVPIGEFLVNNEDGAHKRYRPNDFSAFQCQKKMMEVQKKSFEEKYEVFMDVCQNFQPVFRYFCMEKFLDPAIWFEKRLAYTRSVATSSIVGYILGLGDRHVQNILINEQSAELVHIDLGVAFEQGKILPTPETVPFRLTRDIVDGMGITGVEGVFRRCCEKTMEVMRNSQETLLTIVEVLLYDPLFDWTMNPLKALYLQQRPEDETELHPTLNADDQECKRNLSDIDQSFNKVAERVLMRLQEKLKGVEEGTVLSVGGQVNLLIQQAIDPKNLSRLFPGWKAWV
Measured IC50 of individual entries

Below, 5 molecules whose answers are already recorded.
O=c1cc(N2CCOCC2)cc(N2CCC[C@H]2Cc2ccccc2)[nH]1 | > 30 µM
COc1ccc2c(c1)Cc1cccc(-c3cc(=O)cc(N4CCOCC4)[nH]3)c1S2 | > 30 µM
O=c1cc(N2CCOCC2)cc(N2C[C@@H]3C[C@@H]3[C@@H]2Cc2ccccc2)[nH]1 | 0.15 µM
COc1ccc2c(c1)Cc1cccc(-c3nc(O)cc(N4CCOCC4)n3)c1S2 | > 30 µM
COc1ccc2c(c1)Cc1cccc(-c3cc(N4CCOCC4)nc(O)n3)c1S2 | > 30 µM

The record that follows has no IC50 shown yet.
Could you tell me which IC50 is on file for COc1ccc2c(c1)Cc1cccc(-c3cc(N4CCOCC4)[nH]c(=O)c3)c1S2 ?
> 30 µM

====

organism: Homo sapiens; test: Selectivity ratio of Ki for full length recombinant GST-tagged VPS34 expressed in baculovirus expression system using PI/PS as substrate incubated for 60 mins in presence of ATP at Km concentration by luminescence assay to Ki for full length recombinant FLAG-tagged human ATM assessed as decrease in p53 S15 phosphorylation using full length myc-tagged p53 as substrate incubated for 30 mins in presence of ATP by ELISA
So basically, if Ratio Ki comes in under 40 it's label 1, and if it's 40 or more it's label 0.

Solved entries:
COc1ccc2c(c1)Cc1cccc(-c3cc(O)nc(N4CCOCC4)n3)c1S2 | label 1
O=c1cc(N2CCOCC2)cc(N2CC[C@@H](F)[C@@H]2Cc2ccccc2)[nH]1 | label 0
C[C@@H]1CN(c2cc(=O)[nH]c(N3CCCCC[C@@H]3Cc3ccccc3)n2)CCO1 | label 0
C[C@@H]1CN(c2cc(N3CCCCC[C@@H]3Cc3ccccc3)[nH]c(=O)c2)CCO1 | label 0
O=c1cc(N2CCOCC2)cc(N2CCCCC[C@@H]2Cc2ccccc2)[nH]1 | label 0
O=c1cc(N2CCOCC2)nc(N2C[C@H]3C[C@H]3[C@@H]2Cc2ccccc2)[nH]1 | label 0

State whether 40 exceeds Ratio Ki recorded for COc1ccc2c(c1)Cc1cccc(-c3cc(N4CCOCC4)nc(O)n3)c1S2 .
label 1

Also need O=c1cc(N2CCOCC2)cc(N2C[C@@H]3C[C@@H]3[C@@H]2Cc2ccccc2)[nH]1 , thanks.
label 1

Also need O=c1cc(N2CCOCC2)cc(N2CCC(F)(F)[C@@H]2Cc2ccccc2)[nH]1 , thanks.
label 1

Also need O=c1cc(N2CCOCC2)nc(N2CCCCC[C@@H]2Cc2ccccc2)[nH]1 , thanks.
label 0

====

assay: Kinetic solubility of the compound in pH 7.4 PBS buffer incubated for 2 hrs using orbital shaker by LC-UV mass spectrometry; type: physicochemical; details: read-out: Kinetic_solubility
Measured solubility kinetic at 2 h of individual entries
Numbers only here, please. The scale is µg/mL.

CO[C@@H]1CCN(c2cc(N3CCOCC3)cc(=O)[nH]2)[C@H]1Cc1ccccc1 | 72

The record that follows has no solubility kinetic at 2 h shown yet.
Could you tell me which solubility kinetic at 2 h is on file for O=c1cc(N2CCOCC2)cc(N2C[C@H]3C[C@H]3[C@@H]2Cc2ccccc2)[nH]1 ?
59

====

experiment: Kinetic solubility of the compound in pH 7.4 PBS buffer incubated for 2 hrs using orbital shaker by LC-UV mass spectrometry; format: physicochemical; conditions: read-out: Kinetic_solubility
Measured solubility kinetic at 2 h of individual entries
Numbers only here, please. The scale is µg/mL.

Below, 2 compounds whose answers are already recorded.
C[C@@H]1CN(c2cc(N3C[C@H]4C[C@H]4[C@@H]3Cc3ccccc3)[nH]c(=O)c2)CCO1 | 62
O=c1cc(N2CCOCC2)cc(N2CCC(F)(F)[C@@H]2Cc2ccccc2)[nH]1 | 65

The record that follows has no solubility kinetic at 2 h shown yet.
Could you tell me which solubility kinetic at 2 h is on file for C[C@@H]1CCN(c2nc(N3CCOCC3)cc(=O)[nH]2)[C@H]1Cc1ccccc1 ?
33

====

Measured Ki of individual entries
biological target: Serine-protein kinase ATM (Homo sapiens, UniProt Q13315); test: Inhibition of full length recombinant FLAG-tagged human ATM assessed as decrease in p53 S15 phosphorylation using full length myc-tagged p53 as substrate incubated for 30 mins in presence of ATP by ELISA

COc1ccc2c(c1)Cc1cccc(-c3nc(O)cc(N4CCOCC4)n3)c1S2 | > 1600 nM

Could you tell me which Ki is on file for COc1ccc2c(c1)Cc1cccc(-c3cc(N4CCOCC4)[nH]c(=O)c3)c1S2 ?
> 1000 nM

Also need COc1ccc2c(c1)Cc1cccc(-c3cc(N4CCOCC4)cc(=O)n3C)c1S2 , thanks.
> 1200 nM

Also need COc1ccc2c(c1)Cc1cccc(-c3cc(N4CCOCC4)cc(OC)n3)c1S2 , thanks.
> 1600 nM

====

biological target: Phosphatidylinositol 3-kinase catalytic subunit type 3 (Homo sapiens); experiment: Inhibition of full length recombinant GST-tagged human VPS34 expressed in baculovirus expression system using PI/PS as substrate incubated for 60 mins in presence of ATP at Km concentration by luminescence assay
Sequence (Q8NEB9 whole entry): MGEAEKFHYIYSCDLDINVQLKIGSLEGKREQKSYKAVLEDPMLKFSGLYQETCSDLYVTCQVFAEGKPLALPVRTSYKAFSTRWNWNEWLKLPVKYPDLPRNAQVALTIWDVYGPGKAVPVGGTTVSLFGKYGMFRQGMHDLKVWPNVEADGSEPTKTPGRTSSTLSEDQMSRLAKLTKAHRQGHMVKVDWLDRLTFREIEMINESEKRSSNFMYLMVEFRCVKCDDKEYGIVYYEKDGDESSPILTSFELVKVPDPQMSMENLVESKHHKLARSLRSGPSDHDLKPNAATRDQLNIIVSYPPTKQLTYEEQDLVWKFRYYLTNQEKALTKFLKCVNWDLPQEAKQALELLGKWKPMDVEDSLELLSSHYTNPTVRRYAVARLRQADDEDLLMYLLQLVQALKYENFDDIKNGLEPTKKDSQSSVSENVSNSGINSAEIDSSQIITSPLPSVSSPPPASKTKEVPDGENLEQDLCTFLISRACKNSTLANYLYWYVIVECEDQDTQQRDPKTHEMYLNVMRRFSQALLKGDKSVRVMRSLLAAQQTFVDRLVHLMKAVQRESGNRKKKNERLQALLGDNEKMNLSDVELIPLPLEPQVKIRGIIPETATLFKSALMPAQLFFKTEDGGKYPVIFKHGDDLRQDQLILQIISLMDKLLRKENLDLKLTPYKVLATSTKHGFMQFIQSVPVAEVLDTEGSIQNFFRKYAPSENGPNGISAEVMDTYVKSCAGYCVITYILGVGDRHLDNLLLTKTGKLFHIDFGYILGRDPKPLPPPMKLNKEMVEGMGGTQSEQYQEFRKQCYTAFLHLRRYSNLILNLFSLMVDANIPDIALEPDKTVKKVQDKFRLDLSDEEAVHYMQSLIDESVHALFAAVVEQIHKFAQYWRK
experimental.endpoint: Ki

Could you tell me which Ki is on file for COc1ccc2c(c1)Cc1cccc(-c3cc(N4CCOCC4)cc(OC)n3)c1S2 ?
> 5 µM

Also need COc1ccc2c(c1)Cc1cccc(-c3nc(O)cc(N4CCOCC4)n3)c1S2 , thanks.
> 5 µM

Also need C[C@@H]1CN(c2cc(N3C[C@H]4C[C@H]4[C@@H]3Cc3ccccc3)[nH]c(=O)c2)CCO1 , thanks.
> 5 µM

====

Measured solubility kinetic at 2 h of individual entries
experiment: Kinetic solubility of the compound in pH 7.4 PBS buffer incubated for 2 hrs using orbital shaker by LC-UV mass spectrometry; format: physicochemical; settings: read-out: Kinetic_solubility

Below, 2 compounds whose answers are already recorded.
COc1ccc2c(c1)Cc1cccc(-c3cc(N4CCOCC4)cc(OC)n3)c1S2 | < 2 µg/mL
COc1ccc2c(c1)Cc1cccc(-c3cc(N4CCOCC4)nc(O)n3)c1S2 | < 2 µg/mL

The record that follows has no solubility kinetic at 2 h shown yet.
Could you tell me which solubility kinetic at 2 h is on file for O=c1cc(N2CCOCC2)cc(N2CCC[C@@H]2Cc2ccccc2)[nH]1 ?
> 68 µg/mL
